Reference source for all entries: patent US6407104B1

List of melting point values.

Below are worked cases with known answers.
# molecule, experimental.readout, measurement
records = [
    ("CCc1c(C(=O)C(N)=O)c2c(OCC(=O)OC)nc(CO)cn2c1Cc1ccccc1 [Compound I-37]", "melting point", "201 to 202 °C"),
    ("CCc1c(C(=O)C(N)=O)c2c(OCC(=O)OC)nc(C)cn2c1Cc1cccc(F)c1 [Compound I-35]", "melting point", "179.5 to 181 °C"),
    ("CCCCCOC(=O)COc1nc(C)cn2c(Cc3ccc(F)cc3)c(CC)c(C(=O)C(N)=O)c12 [Compound I-94]", "melting point", "175 to 176 °C"),
    ("CCc1c(C(=O)C(N)=O)c2c(OCC(=O)O)nc(C)cn2c1CC1CCCC1 [Compound I-24]", "melting point", "192 to 193 °C"),
    ("COC(=O)COc1nccn2c(Cc3ccccc3)c(C)c(C(=O)C(N)=O)c12 [Compound I-13]", "melting point", "182 to 183 °C"),
    ("CCc1c(C(=O)C(N)=O)c2c(OCC(=O)OC)nc(C)cn2c1Cc1ccccc1Cc1ccccc1 [Compound I-27]", "melting point", "134.5 to 136 °C"),
    ("COC(=O)COc1nc(C)cn2c(Cc3ccccc3)c(C3CC3)c(C(=O)C(N)=O)c12 [Compound I-75]", "melting point", "210 to 211.5 °C"),
    ("CCc1c(C(=O)C(N)=O)c2c(OCC(=O)O)nc(C)cn2c1Cc1cccc(F)c1 [Compound I-36]", "melting point", "190.5 to 193 °C"),
]

Lookup: Recorded melting point of CCc1c(C(=O)C(N)=O)c2c(OCC(=O)OC)nc(C)cn2c1Cc1ccccc1-c1ccccc1 [Compound I-21] , please.
Found: 164.5 to 165.5 °C

Lookup: Moving on to the next molecule: CCc1c(C(=O)C(N)=O)c2c(OCC(=O)O)nccn2c1Cc1cccc(OC)c1 [Compound I-10]
Found: 196 to 197.5 °C

Lookup: Next entry: CCc1c(C(=O)C(N)=O)c2c(OCC(=O)O)nccn2c1Cc1ccc2ccsc2c1 [Compound I-12]
Found: 209 to 211 °C
